studySystem: HLA-B*15:01
experiment: IEDB peptide-MHC binding, purified MHC/competitive/radioactivity; filed as Kd, often an IC50 or EC50 that approximates it; bounds were set here for any values at or beyond the usual limits of such assays
testParameters: source organism: Dengue virus 4 Philippines/H241/1956
pKd: −log10 of the molar value.

recordSequence | pKd
AVFKMSPGY | 7.84
IQRTVFFVL | 8.29

---

Measured Kd values are reported for all entries that follow.
studySystem: HLA-B*15:03
experiment: IEDB peptide-MHC binding, purified MHC/competitive/radioactivity; filed as Kd, often an IC50 or EC50 that approximates it; bounds were set here for any values at or beyond the usual limits of such assays
testParameters: source organism: Vaccinia virus Copenhagen
assayReadout: Kd (µM)

recordSequence | assayReadout | measuredResult
ISVLTGSSI | Kd | 0.0249
LLSLEIVFF | Kd | 2.11
SIRSMSRSI | Kd | 10.3
WSTSFTNIF | Kd | 0.00588
